Tested on: Escherichia coli
Test: MIC, sole activity (no second agent)
Format: cell-based
Conditions: in the absence of Rifampicin; strain ATCC25922
Bridge positions count the residues as written; N and C are the ends. Square brackets hold non-standard residues; d marks the D form. Peptide text beside a SMILES is read from it. * marks the point of attachment. ξ: configuration not given here. ξβ3hGly(cHex) = NC(CC(=O)*)C1CCCCC1; Thr(3ξ) = CC(O)[C@H](N)C(=O)O; Dab = NCC[C@H](N)C(=O)O; GABA = NCCCC(=O)O
Measured metric: MIC E. coli ATCC25922 (micrograms/mL)
The answer is to be given in micrograms/mL; state only the numeric part.

Memo: CC(C)C[C@@H]1NC(=O)[C@@H](Cc2ccccc2)NC(=O)[C@H](CCN)NC(=O)[C@@H](NC(=O)[C@H](CCN)NC(=O)[C@@H](NC(=O)CC(C)O)C(C)O)CCNC(=O)[C@H](C(C)O)NC(=O)[C@H](CCN)NC(=O)[C@H](CCN)NC1=O (mixture of isomers) , reported MIC E. coli ATCC25922: 4

Memo: CC(C)C[C@@H]1NC(=O)[C@@H](Cc2ccccc2)NC(=O)[C@H](CCN)NC(=O)[C@@H](NC(=O)[C@H](CCN)NC(=O)[C@@H](NC(=O)CC(N)C2CCCCC2)C(C)O)CCNC(=O)[C@H](C(C)O)NC(=O)[C@H](CCN)NC(=O)[C@H](CCN)NC1=O (stereo partly drawn) [Example 10] ({ξβ3hGly(cHex)}-[Thr(3ξ)][Dab][Dab][Dab][dF]L[Dab][Dab][Thr(3ξ)]; lactam 3-C) , reported MIC E. coli ATCC25922: 2

Memo: CC(C)C[C@@H]1NC(=O)[C@@H](Cc2ccccc2)NC(=O)[C@H](CCN)NC(=O)[C@@H](NC(=O)[C@H](CCN)NC(=O)[C@@H](NC(=O)CCCN)C(C)O)CCNC(=O)[C@H](C(C)O)NC(=O)[C@H](CCN)NC(=O)[C@H](CCN)NC1=O (stereo partly drawn) [Example 4, 4-Aminobutanoyl polymyxin B nonapeptide] (H-[GABA][Thr(3ξ)][Dab][Dab][Dab][dF]L[Dab][Dab][Thr(3ξ)]; lactam 4-C) , reported MIC E. coli ATCC25922: 2

###

I'd be grateful if you could share measured Log reduction from vehicle (CFU/g) for these entries.
Test system: P. aeruginosa ATCC 27853
Details: ATCC 27853, in vivo, iv, 4 mg/kg, 6 h
Counter-ions that a name gives are not always drawn. Bridge positions count the residues as written; N and C are the ends. Square brackets hold non-standard residues; d marks the D form. Peptide text beside a SMILES is read from it. * marks the point of attachment. ξ: configuration not given here. Acetyl(2-(piperazin-1-yl)) = O=C(CN1CCNCC1)*; ξβ3hGly(cHex) = NC(CC(=O)*)C1CCCCC1; Thr(3ξ) = CC(O)[C@H](N)C(=O)O; Dab = NCC[C@H](N)C(=O)O; Dap = NC[C@H](N)C(=O)O
The answer is to be given in log CFU/g; state only the numeric part.

Memo: CC(C)C[C@@H]1NC(=O)[C@@H](Cc2ccccc2)NC(=O)[C@H](CCN)NC(=O)[C@@H](NC(=O)[C@H](CCN)NC(=O)[C@@H](NC(=O)CN2CCNCC2)C(C)O)CCNC(=O)[C@H](C(C)O)NC(=O)[C@H](CCN)NC(=O)[C@H](CCN)NC1=O (some centres unmarked) [Example 52, trifluoroacetate salt] ({Acetyl(2-(piperazin-1-yl))}-[Thr(3ξ)][Dab][Dab][Dab][dF]L[Dab][Dab][Thr(3ξ)]; lactam 3-C) , reported Log reduction from vehicle (CFU/g): −0.18

Memo: CC(C)C[C@@H]1NC(=O)[C@@H](Cc2ccccc2)NC(=O)[C@H](CCN)NC(=O)[C@@H](NC(=O)[C@H](CN)NC(=O)[C@@H](NC(=O)CC(N)C2CCCCC2)C(C)O)CCNC(=O)[C@H](C(C)O)NC(=O)[C@H](CCN)NC(=O)[C@H](CCN)NC1=O (stereo partly drawn) [Example 47, TFA salt] ({ξβ3hGly(cHex)}-[Thr(3ξ)][Dap][Dab][Dab][dF]L[Dab][Dab][Thr(3ξ)]; lactam 3-C) , reported Log reduction from vehicle (CFU/g): 1.07

###

I'd be grateful if you could share measured MIC E. coli NCTC9001 for these entries.
System: Escherichia coli
Test: MIC, compound in combination with a second agent (broth microdilution)
Assay type: cell-based
Details: 1:1 (wt:wt) combination with Rifampicin; MIC = total drug concentration; strain NCTC9001
Protocol: To evaluate the potency and spectrum of the compounds both alone and in combination with another agent, susceptibility testing was performed against up to four strains of each of the four Gram negative pathogens, Escherichia coli, Pseudomonas aeruginosa, Klebsiella pneumoniae and Acinetobacter baumannii. Ratios of components in a combination, such as 1:1, refers to a weight to weight ratio. […]
Counter-ions that a name gives are not always drawn. Bridge positions count the residues as written; N and C are the ends. Square brackets hold non-standard residues; d marks the D form. Peptide text beside a SMILES is read from it. * marks the point of attachment. ξ: configuration not given here. ξHexahydromandeloyl = O=C(C(O)C1CCCCC1)*; Thr(3ξ) = CC(O)[C@H](N)C(=O)O; X5 = O=C(C[C@@H]1CCCCN1)*; Octanoyl = CCCCCCCC(=O)*; Dab = NCC[C@H](N)C(=O)O; X1 = CCCCCCC(O)C(=O)*; X4 = NC1CCCC1C(=O)*
The answer is to be given in micrograms/mL; state only the numeric part.

Memo: CC(C)C[C@@H]1NC(=O)[C@@H](Cc2ccccc2)NC(=O)[C@H](CCN)NC(=O)[C@@H](NC(=O)[C@@H](CO)NC(=O)[C@@H](NC(=O)C2CCCC2N)C(C)O)CCNC(=O)[C@H](C(C)O)NC(=O)[C@H](CCN)NC(=O)[C@H](CCN)NC1=O (stereo partly drawn) [Example 44, TFA salt] (X4-[Thr(3ξ)][dS][Dab][Dab][dF]L[Dab][Dab][Thr(3ξ)]; lactam 3-C) , reported MIC E. coli NCTC9001: 0.5

Memo: CC(C)C[C@@H]1NC(=O)[C@@H](Cc2ccccc2)NC(=O)[C@H](CCN)NC(=O)[C@@H](NC(=O)[C@@H](CO)NC(=O)[C@@H](NC(=O)C(O)C2CCCCC2)C(C)O)CCNC(=O)[C@H](C(C)O)NC(=O)[C@H](CCN)NC(=O)[C@H](CCN)NC1=O (stereo partly drawn) [Example 46, TFA salt] (ξHexahydromandeloyl-[Thr(3ξ)][dS][Dab][Dab][dF]L[Dab][Dab][Thr(3ξ)]; lactam 3-C) , reported MIC E. coli NCTC9001: 0.25

Memo: CCCCCCC(O)C(=O)N[C@H](C(=O)N[C@@H](CCN)C(=O)N[C@H]1CCNC(=O)[C@H]([C@@H](C)O)NC(=O)[C@H](CCN)NC(=O)[C@H](CCN)NC(=O)[C@H](CC(C)C)NC(=O)[C@@H](Cc2ccccc2)NC(=O)[C@H](CCN)NC1=O)[C@@H](C)O (stereo partly drawn) [Example 1] (X1-T[Dab][Dab][Dab][dF]L[Dab][Dab]T; lactam 3-C) , reported MIC E. coli NCTC9001: 0.5

Memo: CC(C)C[C@@H]1NC(=O)[C@@H](Cc2ccccc2)NC(=O)[C@H](CCN)NC(=O)[C@@H](NC(=O)[C@H](CCN)NC(=O)[C@@H](NC(=O)C[C@@H]2CCCCN2)C(C)O)CCNC(=O)[C@H](C(C)O)NC(=O)[C@H](CCN)NC(=O)[C@H](CCN)NC1=O (stereo partly drawn) [Example 33, trifluoroacetate salt] (X5-[Thr(3ξ)][Dab][Dab][Dab][dF]L[Dab][Dab][Thr(3ξ)]; lactam 3-C) , reported MIC E. coli NCTC9001: 0.125

Memo: CCCCCCCC(=O)N[C@H](C(=O)N[C@H](CO)C(=O)N[C@H]1CCNC(=O)[C@H](C(C)O)NC(=O)[C@H](CCN)NC(=O)[C@H](CCN)NC(=O)[C@H](CC(C)C)NC(=O)[C@@H](Cc2ccccc2)NC(=O)[C@H](CCN)NC1=O)C(C)O (stereo partly drawn) [Example C1, NAB-739 TFA salt, reference compound] (Octanoyl-[Thr(3ξ)][dS][Dab][Dab][dF]L[Dab][Dab][Thr(3ξ)]; lactam 3-C) , reported MIC E. coli NCTC9001: 1

Memo: CC(C)C[C@@H]1NC(=O)[C@@H](Cc2ccccc2)NC(=O)[C@H](CCN)NC(=O)[C@@H](NC(=O)[C@H](CCN)NC(=O)[C@@H](NC(=O)C2CCCC2N)C(C)O)CCNC(=O)[C@H](C(C)O)NC(=O)[C@H](CCN)NC(=O)[C@H](CCN)NC1=O (stereo partly drawn) [Example 7] (X4-[Thr(3ξ)][Dab][Dab][Dab][dF]L[Dab][Dab][Thr(3ξ)]; lactam 3-C) , reported MIC E. coli NCTC9001: 0.25

The values you see were collected from patent US10407467B2.
